The origin of these recorded values is patent US20080026996A1.

# assay.explanation: Rat serum stability studies (remaining active peptide by DiscoveRx cAMP on CHO-VPAC2 cells)
# Assay type: in vitro ADME
Where no end group is shown, it is not given here. [ ]: non-standard residue; d: D form. The star is where a group is joined. Hexanoyl = CCCCCC(=O)*; Aib = CC(C)(N)C(=O)O
endpoint.name: Rat Serum Stability (estimated purity in % after 18 hours) (%)

> print(dat)
                                   substance  result.operator  result.number
 1  Hexanoyl-HSDAVFTDNYTRLR[Aib]QVAAVKYLQSIKNKRYGGPSSGAPPPS [Agonist P262]                =          10.14
 2  Hexanoyl-HSDAVFTDNYTRLKKQVAAKKYLQSIKNKRYGGPSSGAPPPS [Agonist P171]                =           1.78
 3  Hexanoyl-HSDAVFTDNYTRLR[Aib]QLAAK[Aib]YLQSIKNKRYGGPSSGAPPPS [Agonist P284]                =          27.89
 4  Hexanoyl-HSDAVFTDNYTRLRKQVAAQKYLQSIKNKRYGGPSSGAPPPS [Agonist P150]                =           0.21
 5  Hexanoyl-HSDAVFTDNYTRLFKQVAAKKYLQSIKNKRYGGPSSGAPPPS [Agonist P175]                <           0.11
 6  Hexanoyl-HSDAVFTDNYTRLRKQVAAKFYLQSIKNKRYGGPSSGAPPPS [Agonist P186]                =           0.25
 7  Hexanoyl-HSDAVFTDNYTRLAKQVAAKKYLQSIKNKRYGGPSSGAPPPS [Agonist P173]                =           1.04
 8  Hexanoyl-HSDAVFTDNYTRL[Aib]KQVAALKYLQSIKNKRYGGPSSGAPPPS [Agonist P259]                =          17.65
 9  Hexanoyl-HSDAVFTDNYTRLR[Aib]QVAAK[Aib]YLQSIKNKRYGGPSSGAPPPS [Agonist P264]                =          19.22
10  Hexanoyl-HSDAVFTDNYTRLRFQVAAKKYLQSIKNKRYGGPSSGAPPPS [Agonist P180]                =           1.14
11  Hexanoyl-HSDAVFTDNYTRLRKQVALKKYLQSIKNKRYGGPSSGAPPPS [Agonist P155]                =           0.25
12  Hexanoyl-HSDAVFTDNYTRLRKQVAAKKY[Aib]QSIKNKRYGGPSSGAPPPS [Agonist P236]                =           0.79
13  Hexanoyl-HSDAVFTDNYTRL[Aib]KQVAA[Aib]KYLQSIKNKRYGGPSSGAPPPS [Agonist P242]                =          40.28
14  Hexanoyl-HSDAVFTDNYTRL[Aib]KQVAAAKYLQSIKNKRYGGPSSGAPPPS [Agonist P260]                =          28.57
15  Hexanoyl-HSDAVFTDNYTRLRKQLAAKKYLQSIKNKRYGGPSSGAPPPS [Agonist P290]                =           0.11
16  Hexanoyl-HSDAVFTDNYTRLRK(Ac)QVAAK(Ac)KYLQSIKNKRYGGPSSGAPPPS [Agonist P193]                =           0.25
17  Hexanoyl-HSDAVFTDNYTRLRKQVAAFKYLQSIKNKRYGGPSSGAPPPS [Agonist P148]                <           0.10
18  Hexanoyl-HSDAVFTDNYTRLRKQVAAKKYLQSIKNKRYGGPSSGAPPPC [Agonist P120]                =              5
19  Hexanoyl-HSDAVFTDNYTRLQKQVAA[Aib]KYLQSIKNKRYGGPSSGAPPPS [Agonist P250]                =           7.11
